Here, each record is paired with measured Ki data.
targetOrSystem: human GABAA α1β3γ2 receptor (Homo sapiens (Human), UniProt P14867+P18507)
testDescription: Radioligand binding assay, competition for [3H]Flumazenil, γ2-containing GABAA subtypes
cond: HEK293F cells, [3H]Flumazenil 1 nM, Table 1; read-out: Ki h-GABAA α1β3γ2
Give the value in µM but do not write µM after it.

Guide cases for Ki, answers given:
[2H]C1([2H])OCc2c(sc3c2C(c2c(F)cccc2F)=N[C@@H](C)c2nc(C(=O)NCC)nn2-3)OC1([2H])[2H] = 4.03
C[C@@H]1N=C(c2c(F)cccc2F)c2c(sc3c2COCCC3)-n2nc(C(=O)NCC3(O)CC3)nc21 = 4.92
C[C@@H]1N=C(c2c(F)cccc2F)c2c(sc3c2COC[C@H](C)O3)-n2nc(C(=O)NCCO)nc21 = 11.4

### Prompt Value lookup for Ki; key = C[C@@H]1N=C(c2c(F)cccc2F)c2c(sc3c2COCCO3)-n2nc(C(=O)N3CCC3)nc21
### Response 3.04

### Prompt Value lookup for Ki; key = C[C@@H]1N=C(c2c(F)cccc2F)c2c(sc3c2COCCO3)-n2nc(C(=O)N3CC(F)C3)nc21
### Response 2.6

### Prompt Value lookup for Ki; key = C[C@@H]1N=C(c2c(F)cccc2F)c2c(sc3c2COC[C@H](C)O3)-n2nc(C(=O)N3CC(F)C3)nc21
### Response 11.6

### Prompt Value lookup for Ki; key = C[C@@H]1N=C(c2c(F)cccc2F)c2c(sc3c2COCCC3)-n2nc(C(=O)NCC(C)(C)O)nc21
### Response 3.92

### Prompt Value lookup for Ki; key = C[C@@H]1N=C(c2c(F)cccc2F)c2c(sc3c2COCCO3)-n2nc(C(=O)NCC(C)(C)O)nc21
### Response 3.15

### Prompt Value lookup for Ki; key = C[C@@H]1N=C(c2c(F)cccc2F)c2c(sc3c2COCCO3)-n2nc(C(=O)NC[C@](C)(O)C(F)(F)F)nc21
### Response 3.54

### Prompt Value lookup for Ki; key = CCNC(=O)c1nc2n(n1)-c1sc3c(c1C(c1c(F)cccc1F)=N[C@H]2C)COCCO3
### Response 4.08

### Prompt Value lookup for Ki; key = C[C@@H]1N=C(c2c(F)cccc2F)c2c(sc3c2COCCO3)-n2nc(C(=O)N3CC(OC(C)(C)C)C3)nc21
### Response 2.83

### Prompt Value lookup for Ki; key = C[C@@H]1N=C(c2c(F)cccc2F)c2c(sc3c2COCCC3)-n2cc(C(=O)NCC(C)(C)O)nc21
### Response 1.8

### Prompt Value lookup for Ki; key = [2H]C1([2H])OCc2c(sc3c2C(c2c(F)cccc2F)=N[C@@H](C)c2nc(C(=O)N4CC(OCC)C4)nn2-3)OC1([2H])[2H]
### Response 5.78

### Prompt Value lookup for Ki; key = C[C@@H]1N=C(c2c(F)cccc2F)c2c(sc3c2COCCO3)-n2cc(C(=O)NCC(C)(C)O)nc21
### Response 1.27
